# target entity: TBK1 (Homo sapiens, UniProt Q9UHD2)
# Sequence (Q9UHD2 1-729): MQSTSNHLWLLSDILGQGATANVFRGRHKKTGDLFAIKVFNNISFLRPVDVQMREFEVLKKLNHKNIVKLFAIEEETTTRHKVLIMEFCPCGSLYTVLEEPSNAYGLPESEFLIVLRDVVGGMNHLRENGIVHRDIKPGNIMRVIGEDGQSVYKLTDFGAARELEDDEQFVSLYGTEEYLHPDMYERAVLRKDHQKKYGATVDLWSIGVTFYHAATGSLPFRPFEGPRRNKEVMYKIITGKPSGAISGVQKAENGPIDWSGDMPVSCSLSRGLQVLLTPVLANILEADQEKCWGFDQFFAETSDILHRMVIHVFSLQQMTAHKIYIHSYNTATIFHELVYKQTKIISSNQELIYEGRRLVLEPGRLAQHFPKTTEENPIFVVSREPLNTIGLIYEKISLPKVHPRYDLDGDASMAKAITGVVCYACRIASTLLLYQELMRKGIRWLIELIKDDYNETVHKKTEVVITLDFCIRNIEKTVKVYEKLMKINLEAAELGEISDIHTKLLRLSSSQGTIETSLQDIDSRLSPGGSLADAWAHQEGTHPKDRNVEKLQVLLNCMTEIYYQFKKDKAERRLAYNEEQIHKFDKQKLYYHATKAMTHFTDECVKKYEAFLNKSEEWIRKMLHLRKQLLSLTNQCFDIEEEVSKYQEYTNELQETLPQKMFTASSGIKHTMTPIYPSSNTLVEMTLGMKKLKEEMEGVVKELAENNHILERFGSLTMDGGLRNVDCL
# measurement description: TBK biochemical assay
outcome measure: IC50

# IC50 measured on TBK1 (Homo sapiens, UniProt Q9UHD2) for item COc1nc(Nc2nccc(-c3ccc(OC4CCOCC4)c(C#N)c3)n2)ccc1C(=O)N1CC2CC(C1)O2 = < 100 nM

* * *

# target entity: TBK1 (Homo sapiens)
# measurement description: TBK biochemical assay
# protocol conditions: 10 point 1:4 dose response, 30 uM top concentration, 90 min at 25° C., LabChip EZ Reader II; read-out: TBK1_IC50
outcome measure: IC50

The reported value for Cc1nc(C(=O)N2CCC(Oc3ccc(-c4ccnc(Nc5ccc(N6CCN(C)CC6)cc5)n4)cc3C#N)CC2)n[nH]1 [Example 203] in terms of IC50 is < 100 nM

IC50 measured on COc1nc(Nc2nccc(-c3ccc(OC4CCOCC4)c(C#N)c3)n2)ccc1C(=O)N1CC2CCC1CO2 (stereo not shown) [Example 11] = < 100 nM

Memo: COc1nc(Nc2nccc(-c3cc(C#N)c(OC4CCN(C(=O)[C@H](C)O)CC4(F)F)cn3)n2)ccc1N1CCN(C2COC2)CC1 (stereo partly shown) [Example 303] , reported IC50: 100 to 1000 nM

IC50 recorded for this molecule, CN(C)C(=O)c1ccc(Nc2nccc(-c3ccc(OC4CCOCC4)c(C#N)c3)n2)cn1 [Example 23] , is < 100 nM

* * *

# target entity: IKKε (Homo sapiens, UniProt Q14164)
# Sequence (Q14164 whole entry, species assumed): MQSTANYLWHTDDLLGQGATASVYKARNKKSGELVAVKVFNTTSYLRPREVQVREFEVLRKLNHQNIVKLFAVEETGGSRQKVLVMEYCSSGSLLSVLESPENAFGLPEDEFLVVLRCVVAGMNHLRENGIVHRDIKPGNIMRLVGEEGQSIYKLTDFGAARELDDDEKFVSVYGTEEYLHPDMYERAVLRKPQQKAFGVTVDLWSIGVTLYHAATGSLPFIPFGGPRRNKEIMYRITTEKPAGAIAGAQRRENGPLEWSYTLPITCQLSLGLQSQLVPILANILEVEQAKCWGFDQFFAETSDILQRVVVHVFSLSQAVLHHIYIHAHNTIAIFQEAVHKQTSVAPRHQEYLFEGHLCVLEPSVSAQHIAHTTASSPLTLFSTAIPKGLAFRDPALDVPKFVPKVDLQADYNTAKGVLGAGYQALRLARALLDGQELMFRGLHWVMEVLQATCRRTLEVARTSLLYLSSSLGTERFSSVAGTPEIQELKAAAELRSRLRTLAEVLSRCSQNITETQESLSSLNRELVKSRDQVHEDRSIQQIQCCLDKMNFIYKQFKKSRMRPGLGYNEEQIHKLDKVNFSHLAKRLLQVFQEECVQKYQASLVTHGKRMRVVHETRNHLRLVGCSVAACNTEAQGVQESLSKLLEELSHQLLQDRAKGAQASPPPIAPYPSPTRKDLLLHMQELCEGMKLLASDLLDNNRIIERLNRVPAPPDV
# measurement description: IKKε biochemical assay
# protocol conditions: 10 point 1:4 dose response, 30 uM top concentration, 90 min at 25° C., LabChip EZ Reader II; read-out: IKKε_IC50
outcome measure: IC50

IC50 reported for this molecule COc1nc(Nc2nccc(-c3ccc(O[C@@H]4CCN(C(=O)[C@H](C)O)C[C@@H]4F)c(C#N)c3)n2)ccc1N1CCN(C2COC2)CC1 [Example 118] : < 100 nM

Lookup result for COc1nc(Nc2nccc(-c3ccc(OC4CCN(C)CC4)c(C#N)c3)n2)ccc1N1CCN(C)CC1 ; measured IC50: 100 to 1000 nM

The molecule C[C@@H](O)C(=O)N1CCC(Oc2ccc(-c3ccnc(Nc4ccc(C5CCN(C6COC6)CC5)cc4)n3)cc2C#N)C(F)(F)C1 (stereo partly shown) showed IC50 equal to < 100 nM

Sure, the documented IC50 for CC[C@H](O)C(=O)N1CCC(Oc2ccc(-c3ccnc(Nc4ccc(N5CCN(C6COC6)CC5)c(OC)n4)n3)cc2C#N)C(F)(F)C1 (stereo partly shown) is < 100 nM

Where do the numbers come from? From patent US20230019491A1.
